Assay: Study 204953 Part 2: repeat dosing for 11 days with RTV QD or 200 mg BID unboosted
Assay type: in vivo, human
Settings: human, plasma, oral, Study Day 11, 50 mg QD + RTV (PiB), Study 204953; geometric mean (95% CI)
reported.property: Cmax (ng/mL)
One number for each entry, in ng/mL.

Q: Give me measured Cmax, please, for this molecule: `CC(C)C1=C2[C@H]3CC[C@@H]4[C@@]5(C)CC[C@H](OC(=O)CC(C)(C)C(=O)O)C(C)(C)[C@@H]5CC[C@@]4(C)[C@]3(C)CC[C@@]2([C@@H](O)CN(CCN(C)C)Cc2ccc(Cl)cc2)CC1=O`
A: 56.6

---

Assay: Study HMI116787: single ascending dose, food effect and RTV boosting, SDD PiB, healthy subjects
Format: in vivo, human
Conditions: human, plasma, oral; single 10 mg SDD PiB, fasted, without ritonavir, Study HMI116787; geometric mean (95% CI)
reported.property: Cmax (ng/mL)
Answers are plain numbers, in ng/mL.

Q: Using the record for CC(C)C1=C2[C@H]3CC[C@@H]4[C@@]5(C)CC[C@H](OC(=O)CC(C)(C)C(=O)O)C(C)(C)[C@@H]5CC[C@@]4(C)[C@]3(C)CC[C@@]2([C@@H](O)CN(CCN(C)C)Cc2ccc(Cl)cc2)CC1=O [GSK2838232] , state its measured Cmax.
A: 3.49

---

Experiment: Study 204953 Part 2: repeat dosing for 11 days with RTV QD or 200 mg BID unboosted
Type: in vivo, human
Details: human, plasma, oral, Study Day 11, 50 mg QD + RTV (PiB), Study 204953; geometric mean (95% CI); read-out: t½ (converted)
reported.property: half-life

Q: Identify measured half-life corresponding to `CC(C)C1=C2[C@H]3CC[C@@H]4[C@@]5(C)CC[C@H](OC(=O)CC(C)(C)C(=O)O)C(C)(C)[C@@H]5CC[C@@]4(C)[C@]3(C)CC[C@@]2([C@@H](O)CN(CCN(C)C)Cc2ccc(Cl)cc2)CC1=O`
A: 20.5 h

---

Test: Study 200912: single dose 100-200 mg, SDD versus nonmicronized API PiB, healthy subjects
Assay type: in vivo, human
Conditions: human, plasma, oral, 200 mg, single 200 mg API PiB, fasted, without ritonavir, Study 200912; geometric mean (95% CI); read-out: t½ (converted)
reported.property: half-life

Q: Give the measured half-life for `CC(C)C1=C2[C@H]3CC[C@@H]4[C@@]5(C)CC[C@H](OC(=O)CC(C)(C)C(=O)O)C(C)(C)[C@@H]5CC[C@@]4(C)[C@]3(C)CC[C@@]2([C@@H](O)CN(CCN(C)C)Cc2ccc(Cl)cc2)CC1=O`
A: 15.9 h

---

Test: Study 200207: repeat dose 20-50 mg QD for 8 days, SDD, healthy subjects
Format: in vivo, human
Conditions: human, plasma, oral; one subject, 39 hours after the last of eight daily 50 mg doses; read-out: plasma concentration at the time of the NSVT event
reported.property: concentration at 39 hours

Q: Tell me concentration at 39 hours reported for `CC(C)C1=C2[C@H]3CC[C@@H]4[C@@]5(C)CC[C@H](OC(=O)CC(C)(C)C(=O)O)C(C)(C)[C@@H]5CC[C@@]4(C)[C@]3(C)CC[C@@]2([C@@H](O)CN(CCN(C)C)Cc2ccc(Cl)cc2)CC1=O`
A: < 1 ng/mL
